Origin of the recorded values: patent US20210032312A1

# tested on: T1, cynomolgus monkey CD8 alpha on primary cynomolgus CD8+ T cells (cynomolgus monkey, UniProt P01732 23-235 (human entry))
# T1 construct: also called Cyno CD8alpha; cyno CD8A
# T1 sequence (P01732 other isoform, or with tags, fused parts or gaps limits assumed): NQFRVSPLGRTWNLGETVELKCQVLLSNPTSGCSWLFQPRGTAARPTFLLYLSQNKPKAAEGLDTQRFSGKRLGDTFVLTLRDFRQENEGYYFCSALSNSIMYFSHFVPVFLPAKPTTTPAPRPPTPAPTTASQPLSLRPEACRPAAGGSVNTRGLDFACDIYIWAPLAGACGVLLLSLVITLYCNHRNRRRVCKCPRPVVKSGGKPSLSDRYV
# experimental details: flow cytometry, cyno CD8+ T cells
Measured Cyno T-cell Binding 0.2 uM (MFI) of individual entries
Number only, in MFI; omit the unit.

Sample answers from the record:
P283DR9P1364_D9 (designed binder, FN3 domain) LPAPKNLVVSRVTEDSARLSWTAPDAAFDSFGISYPEWPPLGEAIVLTVPGSERSYDLTGLKPGTEYWVIIFGVKGGERSWPLSAIFTT : 20000
P283FR9P1366_F5 (designed binder, FN3 domain) LPAPKNLVVSRVTEDSARLSWTAPDAAFDSFDIGYPEWPIKGEAIVLTVPGSERSYDLTGLKPGTEYWVIIWGVKGGDRSEPLSAIFTT : 4700
P283DR9P1364_D11 (designed binder, FN3 domain) LPAPKNLVVSRVTEDSARLSWTAPDAAFDSFDIAYPEWPPKGEAIVLTVPGSERSYDLTGLKPGTEYFVVIYGVKGGIHSAPLSAIFTT : 16200
P283HR7P1368_C3 (designed binder, FN3 domain) LPAPKNLVVSRVTEDSARLSWTAPDAAFDSFGIGYAEPAVTGEAISLSVPGSKRSYDLTGLKPGTEYWVVIIGVKGGINSYPLGASFTT : 1310

Please list Cyno T-cell Binding 0.2 uM (MFI) recorded for the binder P283ER9P1365_G1 (designed binder, FN3 domain) LPAPKNLVVSRVTEDSARLSWTAPDAAFDSFYIPYRESEFRGEAIALSVPGSERSYDLTGLKPGTKYRVIIIGVKGGEFSQPLGAIFTT
383

Specify reported Cyno T-cell Binding 0.2 uM (MFI) for the binder shown: P283DR9P1364_E5 (designed binder, FN3 domain) LPAPKNLVVSRVTEDSARLSWTAPDAAFDSFWISYPEWPVPGEAIVLTVPGSERSYDLTGLKPGTEYWVIIQGVKGGKLSWPLSAIFTT
5090
